Biological target: T1, residue mutated to A: D (3rd column) (also: biotinylated, attachment site not given here)
T1 construct: position from the legend (CFH1114-1121)
T1 peptide: GPPPPIANGDITSFP
Experiment: ELISA on streptavidin-immobilized biotinylated 15mer peptides; area under the signal vs antibody concentration curve;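 also: antibody binding to each alanine-substituted peptide expressed relative to binding to the natural peptide, using curve area determined separately for every peptide-antibody pair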
Ends that are not written are not given here.
Reported Endpoint: percent of binding to the natural peptide (AUC) (%)
Write the answer as a number in %, unit excluded.

{"columns": ["Binder", "Experimental Value"],
 "data": [
  ["Ab7979 (antibody, V domains shown, Recombinant human mAb) VH: LVESGGGVVQPGKSLRLSCVASGFTFSTYGMHWVRQAPGKGLEWVAVMSFDGKTKYYADSVKGRFTISRDNPKNTLYLQMNSLRSEDTAVYYCAKGGAAAAVFDSWGQGILLTVSS VL: MTQSPNSLAVSLGGRATINCKTSQSILYRSNNKNYLAWYQHKPGQPPKLLIYWASTRESRVPDRFSGSGSRTDFTLTISGLQAEDVAVYYCQQYYNPPWTFGQGTKVEIK", 96],
  ["Ab7957/293i (antibody, V domains shown, Recombinant human mAb) VH: LVESGGGVVPPGKSLRLSCAASGFTFSLYGIHWVRQAPGKGLEWVAVISYDGNTKYYTDSVKGRFTISRDNAKNTIYLQMNSLRLDDTAVYYCAKGAANSATFDFWGRGTMVTVSS VL: MTQSPDSLTLSLGERATINCRSSRTVLYRSNNKNYLAWYQHKPGQPPKLLMSWASTRETGVPDRFSGSGSGTHFTLTITSLQPEDVAVYYCQQYYSPPWTFGQGTKVEIR", 100],
  ["Ab7961/293i (antibody, V domains shown, Recombinant human mAb) VH: LVESGGGVVQPGKSLRLSCVASGFTFSSYGMHWVRQAPGKGLEWVAVMSFDGKTKYYADSVKGRFTISRDNPKNTLYLQMNSLRSEDTAVYYCAKGGAAAAVFDSWGQGILLTVSS VL: MTQSPNSLAVSLGGRATINCKTSQSILYRSNNKNYLAWYQHKSGQPPKLLIYWASTRESGVPDRFSGSGSRTDFTLTISGLQAEDVAVYYCQQYYNPPWTFGQGTKVEIK", 100],
  ["CFH mAb7968 (antibody, V domains shown, also called CBAb1) VH: LVESGGGVVQPGRSLRLSCAASGFTFSRYGMHWVRQAPGKGLEWVAVMSYDGSTKYYADSVKGRFAISRDNPKNTLFLQMNSLRPDDTAVYYCAKGGAAAAVMDVWGKGTTVTVSS VL: MTQSPDSLTVSLGERATISCKSSQRLLYSSNNKNYLAWYQQKPGQPPKLLMYWASTRESGVPDRFSGSGSGTDFSLTISSLQAEDVAVYYCQQYYNPPWTFGQGTKVEVK", 102]
]}

Q: For the binder shown here, Ab7955 (antibody, V domains shown, Recombinant human mAb) VH: LVESGGGVVRPGRSLRLSCVASGFTFNAYGMHWVRQGPGKGLEWLAVISYEGKTVYYADSVKDRFTISRDNSRNTVSLHLNNLRGEDTAVYYCAKGSASAAVLQHWGQGTLVSVTS VL: MTQSPGSLAVSLGSRATINCKSSRSLLYRSNNKNYLAWYQQKPGQSPRLLIYWASSRESGVPDRFSGGGSGTSFTLTISSLQAEDVAVYYCQQYFNPPWTFGQGTKVEIK , give the reported percent of binding to the natural peptide (AUC).
A: 81

Q: For the binder shown here, Ab7960/293i (antibody, V domains shown, Recombinant human mAb) VH: LVESGGGVVQPGKSLRLSCVASGFSFSTYGMHWVRQAPGKGLEWVAVMSFDGKTKYYADSVKGRFTISRDNPKNTLYLQMNSLRSEDTAVYYCAKGGAAAAVFDSWGPGILLTVSS VL: MTQSPNSLAVSLGGRATINCKASQSILYRSNNKNYLAWYQHKAGQPPKLLIYWASTRESGVPERFSGSGSRTDFTLTINGLQAEDVAVYYCQQYYNPPWTFGQGTKVEIK , give the reported percent of binding to the natural peptide (AUC).
A: 95
